Structures can show the parent of a compound that is named as a salt.
Give melting point for every item shown.

I am curious: what melting point value has been reported for CNc1nccc(-c2cc(NC(=O)c3ccc(OC)cc3)c3cc(OC)ccc3c2)n1 ?
214 to 215 °C

Also need COc1cccc(CNc2nccc(-c3cc(N4CCN(CCCN5CCC5)CC4)c4cc(OC)ccc4c3)n2)c1 (as salt: hydrochloride) , thanks.
122 to 130 °C

Also need COc1ccc2cc(-c3ccnc(NCCCN(C)C)n3)cc(N3CCN(c4ncnc5[nH]nc(Br)c45)CC3)c2c1 , thanks.
152 to 155 °C

Also need CCN(CC)CCCN1CCN(c2cc(-c3ccnc(NCc4cccc(OC)c4)n3)cc3ccc(OC)cc23)CC1 (as salt: hydrochloride) , thanks.
156 to 160 °C

Also need COc1ccc2cc(-c3ccnc(NCCc4ccc(OC)c(OC)c4)n3)cc(N3CCN(c4ncnc5[nH]nc(Br)c45)CC3)c2c1 , thanks.
130 to 133 °C

Also need CNc1nccc(-c2cc(NCCCNc3ncnc4[nH]nc(Br)c34)c3cc(OC)ccc3c2)n1 , thanks.
145 to 148 °C

Also need COc1cccc(CNc2nccc(-c3cc(N4CCN(CCCN(C)C)CC4)c4cc(OC)ccc4c3)n2)c1 , thanks.
70 to 75 °C

Also need CCN(C)CCCN1CCN(c2cc(-c3ccnc(NCc4cccc(OC)c4)n3)cc3ccc(OC)cc23)CC1 (as salt: hydrochloride) , thanks.
160 to 169 °C

Also need CNc1nccc(-c2cc(NC(=O)CNCCO)c3cc(OC)ccc3c2)n1 , thanks.
169 to 172 °C

Also need CNc1nccc(-c2cc(NCCCNCCCOC)c3cc(OC)ccc3c2)n1 (as salt: HCl) , thanks.
130 to 132 °C

Also need CNc1nccc(-c2cc(NCCCNCCCN(C)C)c3cc(OC)ccc3c2)n1 , thanks.
142 to 144 °C

Also need COc1ccc2cc(-c3ccnc(N(C)C)n3)cc(NC3CCN(c4ncnc5[nH]nc(Br)c45)CC3)c2c1 , thanks.
167 to 172 °C
